- system under test: UniProt:P55210
- Sequence (P55210 24-198 limits assumed): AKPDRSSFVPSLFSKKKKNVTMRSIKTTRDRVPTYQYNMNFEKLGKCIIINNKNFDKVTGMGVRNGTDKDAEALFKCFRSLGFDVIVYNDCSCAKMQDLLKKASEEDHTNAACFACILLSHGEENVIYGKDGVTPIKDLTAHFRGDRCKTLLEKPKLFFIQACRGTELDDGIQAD
- Sequence (P55210 207-303 limits assumed): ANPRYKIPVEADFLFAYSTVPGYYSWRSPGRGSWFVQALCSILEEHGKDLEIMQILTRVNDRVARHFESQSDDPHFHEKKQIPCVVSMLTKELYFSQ
pKi: −log10 of the molar value.

- compound: "Cc1cccc(C)c1C(=O)OCC(=O)[C@H](CC(=O)O)NC(=O)[C@H](CCCCNC(=O)CCCCCNC(=O)CCCCC1SC[C@@H]2NC(=O)N[C@H]12)NC(=O)[C@H](CCC(=O)O)NC(=O)OCc1ccccc1 (stereo partly specified)"
  system under test: "UniProt:P55210"
  pKi: 5.92

* * *

- system under test: UniProt Q14790
- Sequence (Q14790 217-374 limits assumed): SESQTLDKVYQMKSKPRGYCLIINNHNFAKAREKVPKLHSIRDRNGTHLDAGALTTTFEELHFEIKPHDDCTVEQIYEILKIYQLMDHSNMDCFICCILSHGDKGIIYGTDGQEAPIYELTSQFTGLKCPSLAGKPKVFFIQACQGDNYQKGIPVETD
- Sequence (Q14790 385-479 limits assumed): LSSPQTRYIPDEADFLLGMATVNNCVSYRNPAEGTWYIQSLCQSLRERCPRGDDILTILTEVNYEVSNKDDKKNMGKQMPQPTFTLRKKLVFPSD
pKi: −log10 of the molar value.

- compound: "Cc1cccc(C)c1C(=O)OCC(=O)[C@H](CC(=O)O)NC(=O)[C@H](CCCCNC(=O)CCCCCNC(=O)CCCCC1SC[C@@H]2NC(=O)N[C@H]12)NC(=O)[C@H](CCC(=O)O)NC(=O)OCc1ccccc1 (stereo partly specified)"
  pKi: 6.27

* * *

- system under test: Caspase-3 (Homo sapiens)
- Sequence (P42574 29-175 limits assumed): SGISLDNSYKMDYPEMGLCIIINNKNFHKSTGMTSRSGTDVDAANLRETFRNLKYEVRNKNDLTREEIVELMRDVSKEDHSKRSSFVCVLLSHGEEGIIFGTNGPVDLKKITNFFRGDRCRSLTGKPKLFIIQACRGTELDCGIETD
- Sequence (P42574 176-277 limits assumed): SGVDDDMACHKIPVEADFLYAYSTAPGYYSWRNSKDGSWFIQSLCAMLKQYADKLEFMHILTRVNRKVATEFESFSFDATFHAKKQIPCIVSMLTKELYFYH
pKi: −log10 of the molar value.

- compound: "Cc1cccc(C)c1C(=O)OCC(=O)[C@H](CC(=O)O)NC(=O)[C@H](CCCCNC(=O)CCCCCNC(=O)CCCCC1SC[C@@H]2NC(=O)N[C@H]12)NC(=O)[C@H](CCC(=O)O)NC(=O)OCc1ccccc1 (stereo partly specified)"
  pKi: 6.08
